ASSAYED_TARGET: wild-type mouse C140 receptor (Mus musculus, UniProt P55086)
Construct: Native receptors were produced by cloning the coding region of the receptor gene; expressed in transfected cells; host or cells: Xenopus laevis oocytes injected with capped cRNA from pSG-5 C140
Sequence (P55086 32-399 limits assumed): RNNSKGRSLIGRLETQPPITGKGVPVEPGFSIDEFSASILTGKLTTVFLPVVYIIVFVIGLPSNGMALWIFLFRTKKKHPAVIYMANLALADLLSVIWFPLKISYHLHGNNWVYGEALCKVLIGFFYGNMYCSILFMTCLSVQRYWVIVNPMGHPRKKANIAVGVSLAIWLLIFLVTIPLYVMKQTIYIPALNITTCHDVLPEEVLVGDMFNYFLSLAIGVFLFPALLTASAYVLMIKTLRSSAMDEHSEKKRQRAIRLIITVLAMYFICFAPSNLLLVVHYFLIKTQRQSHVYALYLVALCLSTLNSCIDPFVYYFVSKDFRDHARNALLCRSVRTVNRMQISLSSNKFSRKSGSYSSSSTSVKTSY
TEST_METHOD_NOTES: 45Ca release by Xenopus oocytes expressing wild-type mouse C140 receptor
Type: cell-based
EXPERIMENTAL_PARAMETERS: Table 2; peptides at 100 μM; wild-type mouse C140 receptor in oocytes
Peptide text beside a SMILES is read from it.
Each record here notes measured Fold increase in 45Ca.
Respond with the bare value in fold.

[
  {
    "COMPOUND": "CC[C@H](C)[C@H](NC(=O)[C@H](CC(C)C)NC(=O)[C@@H](N)CO)C(=O)NCC(=O)N[C@@H](CCCNC(=N)N)C(=O)N[C@@H](CC(C)C)C(=O)O [SLIGRL] (H-SLIGRL-OH)",
    "RESULT_UNIT": "fold",
    "MEAS_VALUE": 15
  },
  {
    "COMPOUND": "CC[C@H](C)[C@H](NC(=O)[C@H](CC(C)C)NC(=O)[C@H](C)N)C(=O)NCC(=O)N[C@@H](CCCNC(=N)N)C(=O)N[C@@H](CC(C)C)C(=O)O [ALIGRL] (H-ALIGRL-OH)",
    "RESULT_UNIT": "fold",
    "MEAS_VALUE": 1.3
  }
]

INPUT: Could you tell me which Fold increase in 45Ca is on file for CC[C@H](C)[C@H](NC(=O)[C@H](C)NC(=O)[C@@H](N)CO)C(=O)NCC(=O)N[C@@H](CCCNC(=N)N)C(=O)N[C@@H](CC(C)C)C(=O)O [SAIGRL] (H-SAIGRL-OH) ?
OUTPUT: 0

INPUT: Item under review: CC(C)C[C@H](NC(=O)[C@H](CCCNC(=N)N)NC(=O)CNC(=O)[C@H](C)NC(=O)[C@H](CC(C)C)NC(=O)[C@@H](N)CO)C(=O)O [SLAGRL] (H-SLAGRL-OH) . Reported Fold increase in 45Ca?
OUTPUT: 0

INPUT: Returns the measured Fold increase in 45Ca for the input compound. Input: CC[C@H](C)[C@H](NC(=O)[C@H](CC(C)C)NC(=O)[C@@H](N)CO)C(=O)N[C@@H](C)C(=O)N[C@@H](CCCNC(=N)N)C(=O)N[C@@H](CC(C)C)C(=O)O [SLIARL] (H-SLIARL-OH)
OUTPUT: 4.3

INPUT: # Fold increase in 45Ca lookup, item CC[C@H](C)[C@H](NC(=O)[C@H](CC(C)C)NC(=O)[C@@H](N)CO)C(=O)NCC(=O)N[C@@H](C)C(=O)N[C@@H](CC(C)C)C(=O)O [SLIGAL] (H-SLIGAL-OH)
OUTPUT: 0

====

ASSAYED_TARGET: wild-type mouse C140 receptor (Mus musculus, UniProt P55086)
Construct: Native receptors were produced by cloning the coding region of the receptor gene; expressed in transfected cells; host or cells: Xenopus laevis oocytes injected with capped cRNA from pSG-5 C140
TEST_METHOD_NOTES: 45Ca release by Xenopus oocytes expressing wild-type mouse C140 receptor
Assay type: cell-based
EXPERIMENTAL_PARAMETERS: Table 2; peptides at 100 μM; wild-type mouse C140 receptor in oocytes
Peptide text beside a SMILES is read from it.
Each entry below lists one item and its recorded Fold increase in 45Ca value.
API: value field is a number in fold; no unit string.

[
  {
    "COMPOUND": "CC[C@H](C)[C@H](NC(=O)[C@H](CC(C)C)NC(=O)[C@@H](N)CO)C(=O)NCC(=O)N[C@@H](CCCNC(=N)N)C(=O)N[C@@H](C)C(=O)O [SLIGRA] (H-SLIGRA-OH)",
    "Fold increase in 45Ca / fold": 8.5
  }
]

INPUT: Can you look up Fold increase in 45Ca on wild-type mouse C140 receptor (Mus musculus, UniProt P55086) for CC(C)C[C@H](NC(=O)[C@H](Cc1ccccc1)NC(=O)[C@H](Cc1ccccc1)NC(=O)[C@@H](N)CO)C(=O)N[C@@H](CCCNC(=N)N)C(=O)N[C@@H](Cc1c[nH]c2ccccc12)C(=O)O [SFFLRW, reference compound] (H-SFFLRW-OH) ?
OUTPUT: 1.7
